# assay_info: Toxicity liver stage against HepG2, at 10uM
# Assay type: cell-based
# Design: test concentration 10 uM, cell line HepG2-A16-CD81EGFP
# test_context: human, HepG2-A16-CD81EGFP cells; read-out: INHIBITION
Would you mind telling me the reported cytotoxicity at 10 µM of each entry?

Give the value of cytotoxicity at 10 µM reported for the following: CN1C[C@@H]2COC[C@]2(C(=O)NCCc2cccs2)C1
8.1%

Give the value of cytotoxicity at 10 µM reported for the following: Cc1cccc(CN2CC[C@@H]3[C@@H]2CCN3Cc2cccs2)n1
-117%

Give the value of cytotoxicity at 10 µM reported for the following: CCOc1ncnc2c1CCN(S(=O)(=O)CC)CC2
3.79%

Give the value of cytotoxicity at 10 µM reported for the following: Cc1nnc(C(C)NCC2(c3ccc(Cl)cc3)CCCC2)o1 (stereo unspecified)
8.29%

Give the value of cytotoxicity at 10 µM reported for the following: N#Cc1cn(CCCN2CCc3ccccc3C2)c(=O)[nH]c1=O
2.72%

Give the value of cytotoxicity at 10 µM reported for the following: Cc1ccc(Cl)cc1NCc1nc2n(n1)CCCCC2
5.89%

Give the value of cytotoxicity at 10 µM reported for the following: COc1cccc(C2SCC(=O)Nc3n[nH]cc32)c1OC(C)C (stereo unspecified)
5.09%

Give the value of cytotoxicity at 10 µM reported for the following: CC(Cn1cccn1)NCC(=O)N(C)Cc1ccsc1 (stereo unspecified)
-7.32%

Give the value of cytotoxicity at 10 µM reported for the following: CC(C)NC(=O)CC1CC2(CCN(S(C)(=O)=O)CC2)c2ccccc21 (stereo unspecified)
-2.48%

Give the value of cytotoxicity at 10 µM reported for the following: COCCN1C(=O)[C@@H]2CC[C@H]1CN(C(=O)Cc1ccc(O)c(Cl)c1)C2
-4.26%

Give the value of cytotoxicity at 10 µM reported for the following: CCC(C)(C)C(=O)Nc1ccc2ccn(CC(=O)NC)c2c1
4.19%
